- ASSAY_REMARKS: physchem
MEASUREMENT_TYPE: logP
Provide a numeric answer; units are not to be included.

Consider the compound CC(O)CN(CC(C)O)CC(C)O (stereo not shown) . State its measured logP.
-0.015

---

Please respond with reported Log P for every item in the list.
- ASSAY_REMARKS: octanol-water partition coefficient (Log P) at 25° C., shake flask method
- TEST_CONTEXT: octanol-water partition coefficient at 25° C.
Provide a numeric answer; units are not to be included.

Consider the molecule CCCN(CCC)CCC . State its measured Log P.
2.79

Consider the molecule C1CNCCN1 . State its measured Log P.
−1.5

Consider the molecule Cc1cccnc1 . State its measured Log P.
1.2

Consider the molecule Cc1ncc[nH]1 . State its measured Log P.
0.24
